Would you kindly list pest or weed control at 100 µg/mL for each of these compounds?
System: Mycosphaerella graminicola; Anamorph: Septoria tritici
METHOD_DESCRIPTION: Fungicidal activity: Leaf Blotch of Wheat (SEPTTR)
Type: in vivo
TEST_PARAMETERS: Zymoseptoria tritici, 72 h; High Volume (100 ppm), 3 Day Curative, wheat leaf blotch; read-out: SEPTTR 3 DC disease control

Hi! Can you tell me pest or weed control at 100 µg/mL for each of these compounds?
1. COc1ccnc(C(=O)N[C@H]2COC[C@H](Cc3ccccc3)[C@@H](Cc3ccc(F)cc3)[C@H](C)OC2=O)c1O [compound 143]
2. C=C(C)COC[C@@H]1[C@@H](Cc2ccccc2)COC[C@H](NC(=O)c2nccc(OC)c2O)C(=O)O[C@H]1C [compound 120]
3. COc1ccnc(C(=O)N[C@H]2COC[C@H](CCC(C)C)[C@@H](CCC(C)C)[C@H](C)OC2=O)c1OCOC(C)=O [compound 8]
4. COc1ccnc(C(=O)N[C@H]2COC[C@H](Cc3ccc(C(F)(F)F)cc3)[C@@H](CC(C)C)[C@H](C)OC2=O)c1O [compound 141]
5. COc1ccnc(C(=O)N[C@H]2COC[C@@H]3CCCC[C@H]3[C@@H](C)OC2=O)c1OCOC(C)=O [compound 5]
6. COc1ccnc(C(=O)N[C@H]2COC[C@H](Cc3ccccc3)[C@@H](CCC(C)C)[C@H](C)OC2=O)c1O [compound 148]

Response:
1. < 70%
2. < 70%
3. > 70%
4. > 70%
5. < 70%
6. > 70%

---

Test system: Blumeria graminis f. sp. hordei
METHOD_DESCRIPTION: Fungicidal activity: Barley Powdery Mildew (ERYSGH)
Assay type: in vivo
TEST_PARAMETERS: 100 ppm, 1 DP (1 Day Protectant)
Procedure: Technical grades of materials were dissolved in acetone, which were then mixed with nine volumes of water containing 110 ppm Triton X-100. The fungicide solutions were applied onto wheat seedlings using an automated booth sprayer to run-off. […] All fungicides were evaluated using the aforementioned method for their activity vs. all target diseases, unless stated otherwise. […] Percent disease control was calculated using the ratio of disease severity on treated plants relative to untreated plants. […]
QUANTITY_KIND: ERYSGH disease control rating

>>> df
                                   compound                      system_name   result
0  COc1ccnc(C(=O)N[C@H]2COC[C@H](c3ccccc3)[C@@H](c3ccccc3)[C@H](C)OC2=O)c1OCOC(C)=O [compound 7]  Blumeria graminis f. sp. hordei  A (>70)
1  CCCC[C@@H]1[C@@H](Cc2ccccc2)COC[C@H](NC(=O)c2nccc(OC)c2OCOC(=O)C(C)C)C(=O)O[C@H]1C [compound 1]  Blumeria graminis f. sp. hordei  A (>70)
2  CCCC[C@@H]1[C@@H](Cc2ccc(C(F)(F)F)cc2)COC[C@H](NC(=O)c2nccc(OC)c2OCOC(C)=O)C(=O)O[C@H]1C [compound 16]  Blumeria graminis f. sp. hordei  A (>70)

---

QUANTITY_KIND: melting point

Some compounds with known melting point results, for comparison:
>>> print(df.to_string())
                            smiles_notation         result
0  C[C@@H]1OC(=O)[C@@H](N)COC[C@H](Cc2ccc(Cl)cc2)[C@H]1C1CCCC1.Cl  200 to 203 °C
1  C[C@@H]1OC(=O)[C@@H](N)COC[C@H](Cc2ccc(C(F)(F)F)cc2)[C@H]1Cc1ccc(OC(F)(F)F)cc1.Cl  172 to 175 °C
2  COc1ccnc(C(=O)N[C@H]2COC[C@H](Cc3ccccc3)[C@@H](Cc3ccccc3)[C@H](C)OC2=O)c1OCOC(C)=O    56 to 60 °C
3  COc1ccnc(C(=O)N[C@H]2COC[C@H](Cc3ccccc3)[C@@H](COc3ccccc3)[C@H](C)OC2=O)c1O    68 to 73 °C
4  C[C@@H]1OC(=O)[C@@H](NC(=O)OC(C)(C)C)COC[C@H](Cc2ccccc2)[C@H]1c1ccccc1    66 to 71 °C

Hi! Can you tell me melting point for each of these compounds?
1. COc1ccnc(C(=O)N[C@H]2COC[C@H](Cc3ccccc3)[C@@H](c3ccccc3)[C@H](C)OC2=O)c1OC(C)=O
2. C=C[C@@H]1[C@@H](Cc2ccccc2)COC[C@H](N)C(=O)O[C@H]1C.Cl

Response:
["99 to 103 °C", "208 °C (dec.)"]
